test: Plasma pharmacokinetics and food effect, part C
Type: in vivo, human
details: human, plasma, oral, 45 mg/day, day 4, fed, n = 15, read-out: Cmax, GM (% GCV)
assay.metric: Cmax

For the compound shown here, `Cn1cc(-c2cc(S(C)(=O)=O)ccc2OCC2CC2)c2ccccc2c1=O` , give the reported Cmax. 904 ng/mL

* * *

test: Plasma pharmacokinetics and food effect, part C
Assay type: in vivo, human
details: human, plasma, oral, 45 mg/day, day 4, fasted, n = 15, read-out: AUC0–24, GM (% GCV)
assay.metric: AUC(0-t) (ng·h/mL)
Field: numeric (ng·h/mL). Do not append units.

I have this molecule here, Cn1cc(-c2cc(S(C)(=O)=O)ccc2OCC2CC2)c2ccccc2c1=O [trotabresib] , and I need its recorded AUC(0-t). 17300
